We begin with a simple list: items and their reported composite z-score.
# targetSystem: Torsin-1A-interacting protein 2 (Homo sapiens)
# assayInfo: LULL1 binders on small-molecule microarray, primary screen, cell lysate, human LULL1 lysate, 635/667 nm fluorescence (AID 1092);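 also: probe is lysate of COS7 cells overexpressing human LULL1; score merges per-feature 667 nm fluorescence with signal-to-noise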
# condition: hLULL1 lysate binding, 635 nm fluorescence, higher = more signal
Respond with the number and no other words.

## Task Fill blank: measured composite z-score of the molecule `Cc1ccc(S[C@]2(C(=O)NCC(C)C)CC(=O)N(C(C)C)[C@@H]2c2ccc(CO)cc2)cc1` is ____.
## Result -0.219

## Task Queued: `C=CCNC(=O)[C@H]1[C@@H]2C(=O)O[C@@H](c3ccccc3)[C@@H](c3ccccc3)N2[C@@H](c2ccccc2OCCO)[C@]12C(=O)N(C(=O)OCCOC)c1ccc(C#CCCO)cc12`
## Result 1.36

## Task Queued: `COc1ccc(C#Cc2ccc3c(c2)[C@]2(C(=O)N3)[C@H](c3ccc(O)cc3)N3[C@H](c4ccccc4)[C@H](c4ccccc4)OC(=O)[C@H]3[C@@H]2C(N)=O)cc1`
## Result 2.14

## Task Queued: CN1C=C(C(=O)OCCS(C)(=O)=O)C(C(=O)OCCS(C)(=O)=O)=CC(CCCO)=CC1c1cccs1 (centres undefined)
## Result 0.454

---

# assayInfo: S. cerevisiae growth modulation with rapamycin, primary screen, strain BY4716, OD600, 96 h (AID 1091); also: test concentration not given here
# condition: called active from +8 up or from −8 down
Activity calls are given as the source filed them.
Tick one outcome: Y = active, N = inactive

Known results for molecules:
INSERT INTO results (molecule, classname) VALUES
  ('COC(=O)C(CC#Cc1ccc2c(c1)[C@]1(C(=O)N2)[C@H](C(=O)O)[C@H]2C(=O)O[C@H](c3ccccc3)[C@H](c3ccccc3)N2[C@@H]1c1ccc(OCCO)cc1)C(=O)OC', 'N'),
  ('CC(=O)NCCCC[C@@H]1NC(=O)[C@@H]2C[C@H](C(=O)O)[C@H](c3cccc(OCCO)c3)N2C1=O', 'N'),
  ('C=C(/C(=C/C[C@H](OC(=O)c1ccncc1)c1cccc(OCCO)c1)c1cc(C(=O)OC)ccc1OC)C(C)C', 'N'),
  ('C=CCN1C(=O)[C@@]2(O[C@@H](CCO)[C@H]([Si](C)(C)c3ccc(OC)cc3)[C@H]2C)c2cc(N3C(=O)c4cccc5cccc3c45)ccc21', 'Y'),
  ('C[N+](C)(C)CCCC[C@@H]1NC(=O)[C@@H]2C[C@H](C(=O)NCCCCCNC(=O)CS)[C@H](c3ccc(O)cc3)N2C1=O', 'N'),
  ('O=C1O[C@H](c2ccccc2)[C@H](c2ccccc2)N2[C@H]1[C@@H](C(=O)NC[C@H](O)c1ccccc1)[C@]1(C(=O)Nc3ccc(C#CC4(O)CCCCCC4)cc31)[C@H]2c1ccc(O)cc1', 'N'),
  ('CC(C)(C)OC(=O)CC[C@]1(C(=O)NCc2ccccc2)N=C(c2ccc(OCCCO)cc2)O[C@H]1c1ccccc1N=[N+]=[N-]', 'N'),
  ('COc1c(C)cc(-c2cc3c(c(CCc4ccccc4)n2)[Si](C(C)C)(C(C)C)OC3)cc1C', 'N'),
  ('COc1ccc(CCNC(=O)[C@@]2(Sc3ccc(C)cc3)CC(=O)N(Cc3ccccc3)[C@@H]2c2ccc(CO)cc2I)cc1', 'N'),
  ('CO[C@H]1O[C@H](CO)[C@@H](OC(=O)Nc2ccccc2)[C@H](OC(=O)Nc2ccc3c(c2)OCO3)[C@H]1OC(=O)Nc1ccc2c(c1)OCO2', 'N');

## Task Test call, this molecule: `C=C(CCCC)/C(=C/C[C@H](OC(=O)c1ccncc1)c1ccc(CO)o1)c1cnc2ccccc2c1`
## Result N

## Task Queued: `O=C1O[C@@H](c2ccccc2)[C@@H](c2ccccc2)N2[C@@H](c3ccc(OCCO)cc3)[C@]3(C(=O)Nc4ccc(C#CC5(O)CCCCCC5)cc43)[C@@H](C(=O)NC[C@H](O)c3ccccc3)[C@H]12`
## Result N

## Task Queued: `[N-]=[N+]=Nc1ccccc1[C@H]1OC(c2ccc(OCCCO)cc2)=N[C@@]1(Cc1ccccc1)C(N)=O`
## Result N

## Task Queued: NC(=O)N1C(=O)C2C(C1=O)C1C=C(c3ccc(CO)cc3)C2C(C2CC2)N1Cc1cc2c(cc1Br)OCO2 (stereo not drawn)
## Result N

## Task Queued: CC(=O)OC(C/C=C\B1OC(C)(C)C(C)(C)O1)c1ccccc1 (stereo not drawn)
## Result N
